# studySystem: CYP2C9 (Homo sapiens, UniProt P11712)
# Sequence (P11712 whole entry): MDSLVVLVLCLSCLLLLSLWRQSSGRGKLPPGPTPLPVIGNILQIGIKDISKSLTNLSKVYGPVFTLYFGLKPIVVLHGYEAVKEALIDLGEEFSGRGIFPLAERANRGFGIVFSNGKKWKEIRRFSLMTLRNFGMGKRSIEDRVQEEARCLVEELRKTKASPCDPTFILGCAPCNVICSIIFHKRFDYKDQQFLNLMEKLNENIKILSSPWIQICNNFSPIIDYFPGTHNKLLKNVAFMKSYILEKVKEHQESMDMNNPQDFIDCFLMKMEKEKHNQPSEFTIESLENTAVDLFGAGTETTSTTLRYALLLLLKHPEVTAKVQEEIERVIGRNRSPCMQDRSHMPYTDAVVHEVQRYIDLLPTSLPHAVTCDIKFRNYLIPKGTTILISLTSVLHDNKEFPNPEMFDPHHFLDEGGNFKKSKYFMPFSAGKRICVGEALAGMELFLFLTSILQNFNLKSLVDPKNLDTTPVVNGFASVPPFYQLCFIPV
# procedureSummary: Inhibition of recombinant CYP2C9 (probe tolbutamide)
# Format: in vitro ADME
# protocolConditions: IC50 towards CYP2C9, recombinant isozyme; mean ± SD of triplicate; unit not given (IC50 classes in μM)
quantityKind: IC50

Suppose we examine the molecule O=C1CCC[C@@H]2[C@H]3CCC[N+]4([O-])CCC[C@@H](CN12)[C@@H]34 (stereo partly shown) ; what IC50 value has been reported? > 100 µM

====

We begin with a simple list: items and their reported Three freeze-thaw cycles (-80 °C ↔ 23 °C), RE.
# procedureSummary: Stability tests of analytes in rat plasma QC samples
# Format: in vitro ADME
# protocolConditions: rat plasma, nominal conc. 400 nM
Write down the numeric answer in % and omit the unit.

Here are 5 compounds together with their reported answers.
compound	unitName	obsValue
CC(C)=CCC[C@](C)(O[C@@H]1O[C@H](CO)[C@@H](O)[C@H](O)[C@H]1O)[C@H]1CC[C@]2(C)[C@@H]1[C@H](O)C[C@@H]1[C@@]3(C)CC[C@H](O[C@@H]4O[C@H](CO)[C@@H](O)[C@H](O)[C@H]4O[C@@H]4O[C@H](CO)[C@@H](O)[C@H](O)[C@H]4O)C(C)(C)[C@@H]3CC[C@]12C [Compound D2, Ginsenoside Rd]	%	9.66
O=C1CCC[C@@H]2[C@H]3CCCN4CCC[C@@H](CN12)[C@@H]34	%	5.94
CC(C)=CCC[C@](C)(O)[C@H]1CC[C@]2(C)[C@@H]1[C@H](O)C[C@@H]1[C@@]3(C)CC[C@H](O)C(C)(C)[C@@H]3[C@@H](O[C@@H]3O[C@H](CO)[C@@H](O)[C@H](O)[C@H]3O[C@@H]3O[C@H](CO)[C@@H](O)[C@H](O)[C@H]3O)C[C@]12C [Compound C7, Ginsenoside Rf]	%	-10.52
CC(C)(O)[C@@H]1CC[C@](C)([C@H]2[C@@H](O)C[C@@]3(C)[C@@H]4C[C@H](O[C@@H]5O[C@H](CO)[C@@H](O)[C@H](O)[C@H]5O)[C@H]5C(C)(C)[C@@H](O[C@@H]6OC[C@@H](O)[C@H](O)[C@H]6O)CC[C@@]56C[C@@]46CC[C@]23C)O1 [Compound B2, Astragaloside IV]	%	-12.56
CC(C)=CCC[C@](C)(O[C@@H]1O[C@H](CO[C@@H]2O[C@H](CO)[C@@H](O)[C@H](O)[C@H]2O)[C@@H](O)[C@H](O)[C@H]1O)[C@H]1CC[C@]2(C)[C@@H]1[C@H](O)C[C@@H]1[C@@]3(C)CC[C@H](O[C@@H]4O[C@H](CO)[C@@H](O)[C@H](O)[C@H]4O[C@@H]4O[C@H](CO)[C@@H](O)[C@H](O)[C@H]4O)C(C)(C)[C@@H]3CC[C@]12C [Compound D5, Ginsenoside Rb1]	%	11.44

Suppose we examine the compound CC(C)=CCC[C@](C)(O)[C@H]1CC[C@]2(C)[C@@H]1[C@H](O)C[C@@H]1[C@@]3(C)CC[C@H](O)C(C)(C)[C@@H]3[C@@H](O[C@@H]3O[C@H](CO)[C@@H](O)[C@H](O)[C@H]3O[C@@H]3O[C@@H](C)[C@H](O)[C@@H](O)[C@H]3O)C[C@]12C [Compound C5, Ginsenoside Rg2] ; what Three freeze-thaw cycles (-80 °C ↔ 23 °C), RE value has been reported? -12.71
